The measurements presented in this section are drawn from patent US20250376535A1.

molecular target: T1, EGFR (recombinant human, BLI antigen) (human, UniProt P00533 25-645); experiment: BLI (Octet) as in Example 1; printed under the head Kon(1/Ms), read as koff
T1 construct: also called rh-EGFR; human EGFR
endpoint: koff (s⁻¹)

1) pgEG-SX22 (VHH, not shown: small tags and cut ends) VHH: QVQLVESGGGLVQAGGSLRVSCAVSGGALSAYAMAWFRQAPGKEREFVAGLNWGGDETYYADSAKGRFTISKDNAKNTVSLQMNSLEPEDTAVYYCGGRPGPLLSRATGYKYWGQGTQVTVSS
0.00028
2) pgEG-SX40 (VHH, not shown: small tags and cut ends) VHH: QVQLVESGGGLVQAGGSLRLSCTGSGIRFSFYTLGWYRQAPGKQRELVAEIYSSDNAKYEDSVKGRFAISRDNAKNSVSLQMNSLKPEDTAVYYCNVRATDYWGPGTQVTVSS
0.000406

[I] pgEG-SX6 (VHH, not shown: small tags and cut ends) VHH: QVQLVESGGGTVQAGGSLRLSCVASGMREDIFDMGWYRQAPGLQRELVATITSGGSTDYADSVKGRFTISRDNTENTLNLQMNMLKPEDTAVYYCNALYFPPSGGRSSEFWGQGTLVTVSS
[II] pgEG-SX3 (VHH, not shown: small tags and cut ends) VHH: QVQLVESGGGLVQAGGSLRLSCVVYGSIFASTTMGWYRQAPGKQRELVATVYQSGTSVYADSVKGRFTASRDNAKKTVYLQMNSLKPEDTAVYYCHPRATDYWGRGTQVTVSS
[III] pgEG-SX57 (VHH, not shown: small tags and cut ends) VHH: QVQLVESGGGLVQAGGSLRLSCAGARSIFSIKPMTWYRQAPGKERELVAWFTSGDSPNYADSVKGRFTISRDSAKNTVYLQMNNLKPEDTAVYYCNAVPPLGRWGQGTLVTVSS
Exercise: Task for the reader: rank each entry by its koff, from the minimum upward. A complete answer lists every label in the requested sequence.
Key: II, I, III
(II: 0.000275 s⁻¹, I: 0.000399 s⁻¹, III: 0.000715 s⁻¹)
